Assignment: determine reported melting point for the given compounds.
One number for each entry, in °C.

Here's what some known entries look like.
Compound	melting point, °C
O=C(Nc1ncc(C(F)(F)F)o1)C1c2ccccc2Oc2ccc(F)cc21 (racemic)	217
O=C(Nc1ncc(C(F)(F)F)o1)C1c2ccccc2Oc2cc(F)ccc21 (racemic)	250
O=C(Nc1nc(C(F)(F)F)co1)C1c2ccccc2Oc2c(F)cccc21 (racemic)	233
O=C(Nc1nc(C(F)(F)F)co1)C1c2ccccc2Oc2ccc(F)cc21 (racemic)	241
O=C(Nc1ncc(C(F)(F)F)o1)C1c2ccc(F)cc2Oc2cc(F)ccc21	249

Consider the additional compound presented here.
Q: Quick check: melting point of O=C(Nc1ncc(C(F)(F)F)o1)C1c2ccccc2Oc2c(F)cccc21 (racemic) ?
Result: 228

###

# Assay Text: Microsome incubation, human liver microsomes (metabolic stability)
# Assay type: in vitro ADME
# Run Conditions: maximal achievable bioavailability = 1−E (hepatic extraction ratio), extrapolated from human microsomal clearance
Assignment: determine reported MAB (human) for the given compounds.
One number for each entry, in %.

Compound	Number
O=C(Nc1ncc(C(F)(F)F)o1)C1c2ccc(F)cc2Oc2cc(F)ccc21 [Example 12]	63
O=C(Nc1nc(C(F)(F)F)co1)C1c2ccccc2Oc2cc(F)ccc21 (racemic) [Example 5]	78
O=C(Nc1nc(C(F)(F)F)co1)C1c2ccccc2Oc2c(F)cccc21 (racemic) [Example 7]	67
O=C(Nc1nc(C(F)(F)F)co1)C1c2ccccc2Oc2ccccc21 [Example 1]	68

Consider the additional compound presented here.
Q: Quick check: MAB (human) of O=C(Nc1ncc(C(F)(F)F)o1)C1c2ccccc2Oc2ccccc21 [Example 2] ?
Result: 68

###

# Experimental Target: rat mGlu 1a receptor (Rattus norvegicus, UniProt P23385)
# Sequence (P23385 19-1199): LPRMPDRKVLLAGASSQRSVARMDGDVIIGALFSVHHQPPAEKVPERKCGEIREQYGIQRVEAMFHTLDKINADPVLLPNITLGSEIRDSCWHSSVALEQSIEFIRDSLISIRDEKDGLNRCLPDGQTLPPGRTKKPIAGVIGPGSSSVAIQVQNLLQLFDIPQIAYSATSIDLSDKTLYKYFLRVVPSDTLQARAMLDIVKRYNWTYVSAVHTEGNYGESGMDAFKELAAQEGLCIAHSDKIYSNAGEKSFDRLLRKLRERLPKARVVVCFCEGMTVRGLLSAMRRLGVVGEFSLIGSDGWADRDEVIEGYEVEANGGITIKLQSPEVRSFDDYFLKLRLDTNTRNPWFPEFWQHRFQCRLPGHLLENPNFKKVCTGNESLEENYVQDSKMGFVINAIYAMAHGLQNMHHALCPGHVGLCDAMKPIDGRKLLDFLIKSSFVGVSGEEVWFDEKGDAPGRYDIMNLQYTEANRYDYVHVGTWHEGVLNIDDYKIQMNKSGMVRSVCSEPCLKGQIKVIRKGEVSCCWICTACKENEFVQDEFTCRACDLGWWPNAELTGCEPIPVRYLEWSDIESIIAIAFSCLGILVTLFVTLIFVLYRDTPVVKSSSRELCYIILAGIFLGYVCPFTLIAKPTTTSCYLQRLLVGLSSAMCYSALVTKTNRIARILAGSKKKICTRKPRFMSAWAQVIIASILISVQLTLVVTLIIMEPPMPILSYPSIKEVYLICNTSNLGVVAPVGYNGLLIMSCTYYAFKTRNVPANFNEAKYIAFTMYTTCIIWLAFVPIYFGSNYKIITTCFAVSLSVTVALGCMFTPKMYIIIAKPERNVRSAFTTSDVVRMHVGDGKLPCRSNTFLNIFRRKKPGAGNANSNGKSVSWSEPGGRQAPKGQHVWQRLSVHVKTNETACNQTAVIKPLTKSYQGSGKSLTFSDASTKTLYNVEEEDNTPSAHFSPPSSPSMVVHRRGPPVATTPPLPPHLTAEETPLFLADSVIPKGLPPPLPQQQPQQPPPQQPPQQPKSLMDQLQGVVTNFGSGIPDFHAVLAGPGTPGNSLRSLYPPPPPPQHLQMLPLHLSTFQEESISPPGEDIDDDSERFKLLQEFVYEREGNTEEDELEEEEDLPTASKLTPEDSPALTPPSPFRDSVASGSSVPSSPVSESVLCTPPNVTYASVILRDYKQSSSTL
# Assay Text: [Ca2+]i measurement (FLIPR) on mGlu 1a transfected EBNA cells (headed "Binding Assay")
# Run Conditions: rat mGlu 1a transiently transfected EBNA cells, Fluo-3 AM, activation (agonist) curves
Readout Name: EC50 (nM)
Answers are plain numbers, in nM.

Compound	Unit Spec	EC50
O=C(Nc1ncc(C(F)(F)F)o1)C1c2ccccc2Oc2ccccc21 [Example 2]	nM	38

Go through the items and report each one's EC50.
1. O=C(Nc1nc(C(F)(F)F)co1)C1c2ccccc2Oc2ccc(F)cc21 (racemic) [Example 3]
2. O=C(Nc1nc(C(F)(F)F)co1)C1c2ccccc2Oc2c(Cl)cccc21 (racemic) [Example 14]

Result:
[55, 93]

Go through the items and report each one's EC50.
1. O=C(Nc1ncc(C(F)(F)F)o1)C1c2cc(F)ccc2Oc2ccc(F)cc21 [Example 10]
2. O=C(Nc1ncc(C(F)(F)F)o1)C1c2ccc(F)cc2Oc2cc(F)ccc21 [Example 12]
3. O=C(Nc1nc(C(F)(F)F)co1)C1c2cc(F)ccc2Oc2ccc(F)cc21 [Example 9]

Result:
[124, 25, 44]

###

# Assay Text: Microsome incubation, human liver microsomes (metabolic stability)
# Format: in vitro ADME
# Run Conditions: pH 7.4; human liver microsomes 2.0 mg prot/mL, test compound 10 μM, 37° C., NADPH regenerating system; calculated from in vitro half-life; read-out: Intrinsic clearance (human)
Readout Name: microsomal CLint at 10 μM (µL/min/mg)
Numbers only, in µL/min/mg.

Compound	microsomal CLint at 10 μM, µL/min/mg
O=C(Nc1nc(C(F)(F)F)co1)C1c2ccccc2Oc2ccc(F)cc21 (racemic)	9.9

Go through the items and report each one's microsomal CLint at 10 μM.
1. O=C(Nc1nc(C(F)(F)F)co1)C1c2ccccc2Oc2ccccc21
2. O=C(Nc1nc(C(F)(F)F)co1)C1c2ccccc2Oc2c(F)cccc21 (racemic)
3. O=C(Nc1nc(C(F)(F)F)co1)C1c2cc(F)ccc2Oc2ccc(F)cc21
4. O=C(Nc1ncc(C(F)(F)F)o1)C1c2ccc(F)cc2Oc2cc(F)ccc21
5. O=C(Nc1ncc(C(F)(F)F)o1)C1c2ccccc2Oc2c(F)cccc21 (racemic)

Result:
1. 8
2. 7.9
3. 2.7
4. 9.1
5. 19.2
